# assay_notes: RP, Merck Supelco Ascentis Express C18, 100 × 2.1 mm, 2 µm, 40 °C, 0.4 mL/min, estimated dead time 0.55 min; A: water + 0.1% formic acid, pH 3; B: acetonitrile + 0.1% formic acid, pH 3; gradient (min/%B) 0/5 2/5 17/99.9 20/99.9
# condition_details: stereoisomer not certain
parameter_measured: LC retention time (min)

{"compound": "O=c1[nH]c(=O)c2nccnc2[nH]1 [2,4-DIHYDROXYPTERIDINE]", "LC retention time / min": 0.687}
{"compound": "NC(=O)c1ccccc1O [SALICYLAMIDE]", "LC retention time / min": 4.02}

(1) O=C(O)Cc1c[nH]c2ccc(O)cc12 [5-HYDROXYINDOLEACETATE]
(2) CCC(C(=O)O)C(=O)O [ETHYLMALONATE]
(3) O=C(O)/C=C/c1ccccc1 [TRANS-CINNAMATE]
Ordering criterion: LC retention time; begin with the maximum. Give the order by naming the labels one after another as requested.
3, 1, 2
(3: 6.54 min, 1: 3.17 min, 2: 1.48 min)

(a) COC(=O)c1ccc(O)c(OC)c1 [METHYL VANILLATE]
(b) CCCCCCCCC=CCCCCCCCCCCCC(=O)O [ERUCATE]
Hi team, can someone confirm which has the larger LC retention time: a or b ? Thanks. Reply with the label of the item you choose.
b
(b: 17.8 min, a: 3.63 min)
